Could you please report measured AUC for the items listed next?
- protocol-details: In vivo pharmacokinetics in rats, gavage (PO)
- run-conditions: male, SD, rat, plasma, 4 mg/kg
Write the number in ng·h/mL without appending the unit.

Input line: AUC for `CN1Cc2cnc3ccc(-c4cnc(N)nc4)nc3c2N(c2cccc(C(F)(F)F)c2)C1=O` ?
Output line: 402

Input line: Queued: Cn1c(=O)n(-c2ccc(C(C)(C)C#N)cc2)c2c3cc(-c4cnc5ccccc5c4)ccc3ncc21 [BEZ-235, reference compound]
Output line: 2180

Input line: Queued: COc1ccc(-c2ccc3ncc4c(c3c2)n(-c2ccc(N3CCNCC3)c(C(F)(F)F)c2)c(=O)n4C)cn1 [BGT-226, reference compound]
Output line: 852

Input line: Queued: `CN1Cc2cnc3ccc(-c4ccc(N)nc4)nc3c2N(c2cccc(C(F)(F)F)c2)C1=O`
Output line: 1380

Input line: Queued: `CC(=O)Nc1ccc(-c2ccc3ncc4c(c3n2)N(c2cccc(C(F)(F)F)c2)C(=O)N(C)C4)cn1`
Output line: 63.4

* * *

- protocol-details: in vivo
- run-conditions: male, SD, rat, iv, 2 mg/kg
quantity-kind: half-life (min)
Write the number in min without appending the unit.

Input line: half-life for COc1ccc(-c2ccc3ncc4c(c3n2)N(C2CCN(C(=O)[C@@H](C)O)CC2)C(=O)N(C)C4)cn1 [Compound 86] ?
Output line: 12

* * *

Could you please report measured pIC50 for the items listed next?
- experimental-system: mTOR (Homo sapiens (Human))
- protocol-details: mTOR inhibitory activity, Method 1 activity test
- Type: biochemical
- run-conditions: 4EBP1 50 nM, ATP 10.8 μM
Scale explanation: pIC50 corresponds to minus log10 of a concentration expressed in moles per litre.

Input line: Please provide the recorded pIC50 for `CN1Cc2cnc3ccc(-c4ccc(-n5cccn5)nc4)nc3c2N(c2cccc(C(F)(F)F)c2)C1=O` , tested on mTOR (Homo sapiens (Human)).
Output line: 7.36

Input line: Queued: `COc1ccc(-c2ccc3ncc4c(c3n2)N(c2cccc(C(F)(F)F)c2)C(=O)N(C)C4)cn1`
Output line: 7.27

Input line: Queued: `CSc1ccc(-c2ccc3ncc4c(c3n2)N(c2cccc(C(F)(F)F)c2)C(=O)N(C)C4)cn1`
Output line: 7.12

Input line: Queued: `CN1Cc2cnc3ccc(-c4cnc5[nH]ccc5c4)nc3c2N(c2cccc(C(F)(F)F)c2)C1=O`
Output line: 7.76

* * *

- experimental-system: PI3Kα (Homo sapiens (Human), UniProt P42336)
- Sequence (P42336 whole entry): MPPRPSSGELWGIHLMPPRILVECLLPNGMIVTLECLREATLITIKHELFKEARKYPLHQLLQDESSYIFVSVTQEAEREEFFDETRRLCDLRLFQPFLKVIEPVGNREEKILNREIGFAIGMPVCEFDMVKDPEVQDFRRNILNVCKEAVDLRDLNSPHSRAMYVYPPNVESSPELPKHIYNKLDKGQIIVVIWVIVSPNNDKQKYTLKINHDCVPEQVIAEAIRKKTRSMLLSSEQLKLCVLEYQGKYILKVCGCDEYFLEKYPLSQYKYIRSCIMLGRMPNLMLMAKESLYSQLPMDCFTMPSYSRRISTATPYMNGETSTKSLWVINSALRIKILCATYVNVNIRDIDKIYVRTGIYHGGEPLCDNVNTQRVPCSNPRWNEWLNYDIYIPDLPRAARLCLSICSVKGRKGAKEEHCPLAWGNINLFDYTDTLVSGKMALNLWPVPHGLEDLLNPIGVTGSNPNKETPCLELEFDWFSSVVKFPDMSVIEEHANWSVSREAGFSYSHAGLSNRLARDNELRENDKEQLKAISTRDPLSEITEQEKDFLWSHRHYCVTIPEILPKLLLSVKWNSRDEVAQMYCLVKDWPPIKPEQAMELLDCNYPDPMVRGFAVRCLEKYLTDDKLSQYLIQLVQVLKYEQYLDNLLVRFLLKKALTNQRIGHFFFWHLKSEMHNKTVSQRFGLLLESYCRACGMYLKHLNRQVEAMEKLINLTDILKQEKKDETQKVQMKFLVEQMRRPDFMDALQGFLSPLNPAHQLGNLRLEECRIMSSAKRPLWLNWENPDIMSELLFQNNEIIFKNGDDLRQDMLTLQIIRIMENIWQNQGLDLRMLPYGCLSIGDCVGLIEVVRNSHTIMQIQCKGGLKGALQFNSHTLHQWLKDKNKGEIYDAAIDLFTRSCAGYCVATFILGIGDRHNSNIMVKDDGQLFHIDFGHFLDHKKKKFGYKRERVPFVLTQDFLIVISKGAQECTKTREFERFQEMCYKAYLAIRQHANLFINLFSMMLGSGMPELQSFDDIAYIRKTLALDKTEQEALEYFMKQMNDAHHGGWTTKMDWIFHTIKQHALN
- Sequence (P27986 whole entry partner): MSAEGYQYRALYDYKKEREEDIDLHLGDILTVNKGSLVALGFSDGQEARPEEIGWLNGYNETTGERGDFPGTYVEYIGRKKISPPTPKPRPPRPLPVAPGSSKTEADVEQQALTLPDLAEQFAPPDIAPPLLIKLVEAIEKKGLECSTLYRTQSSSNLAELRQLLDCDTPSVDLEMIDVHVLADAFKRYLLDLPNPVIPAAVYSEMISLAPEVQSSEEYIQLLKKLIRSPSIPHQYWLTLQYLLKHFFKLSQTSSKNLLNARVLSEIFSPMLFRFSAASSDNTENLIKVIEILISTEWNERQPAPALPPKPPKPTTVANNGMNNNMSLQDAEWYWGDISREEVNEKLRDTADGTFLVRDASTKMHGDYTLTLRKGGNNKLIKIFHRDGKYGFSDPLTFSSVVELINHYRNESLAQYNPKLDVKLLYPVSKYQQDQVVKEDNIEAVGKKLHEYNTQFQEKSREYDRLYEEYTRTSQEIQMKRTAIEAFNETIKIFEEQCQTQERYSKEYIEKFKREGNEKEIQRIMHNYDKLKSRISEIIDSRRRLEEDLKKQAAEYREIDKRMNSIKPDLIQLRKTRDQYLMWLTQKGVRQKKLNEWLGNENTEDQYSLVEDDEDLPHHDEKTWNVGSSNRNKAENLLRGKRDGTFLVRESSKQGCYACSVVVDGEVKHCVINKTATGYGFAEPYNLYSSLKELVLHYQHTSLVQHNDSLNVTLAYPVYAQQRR
- protocol-details: PI3K inhibitory activity, Method 1 activity test
- Assay type: biochemical
- run-conditions: PIP2 50 μM, ATP 25 μM
Strictly below 30 nM in IC50: TRUE. Otherwise: FALSE.

Input line: hey, is IC50 for CN1Cc2cnc3ccc(-c4cnc5[nH]ccc5c4)nc3c2N(c2cccc(C(F)(F)F)c2)C1=O [Compound 22] lower than 30 nM or not?
Output line: TRUE

Input line: Queued: CN1CCN(c2ccc(-c3ccc4ncc5c(c4n3)N(c3cccc(C(F)(F)F)c3)C(=O)N(C)C5)cn2)CC1 [Compound 11]
Output line: FALSE

Input line: Queued: COc1ccc(-c2ccc3ncc4c(c3c2)n(-c2ccc(N3CCNCC3)c(C(F)(F)F)c2)c(=O)n4C)cn1 [BGT-226, reference compound]
Output line: FALSE

Input line: Queued: COc1ccc(-c2ccc3ncc4c(c3n2)N(c2cccc(C(F)(F)F)c2)C(=O)N(C)C4)cn1 [Compound 2]
Output line: FALSE

Input line: Queued: CN1Cc2cnc3ccc(-c4cnc5ccccc5c4)nc3c2N(c2ccc(C(C)(C)C#N)cc2)C1=O [Compound 52]
Output line: FALSE

Input line: Queued: COc1ncc(-c2ccc3ncc4c(c3n2)N(c2cccc(C(F)(F)F)c2)C(=O)N(C)C4)cn1 [Compound 13]
Output line: TRUE

Input line: Queued: CSc1ccc(-c2ccc3ncc4c(c3n2)N(c2cccc(C(F)(F)F)c2)C(=O)N(C)C4)cn1 [Compound 8]
Output line: FALSE
